meta.source: ChEMBL document CHEMBL5291721

Observed AC50 for Motilin receptor (Homo sapiens, UniProt O43193), reported per entry below.
OUTCOME_MEASURE: AC50

MOLECULE	OUTCOME_MEASURE	MEASURED
CCCCCNC(=N)N/N=C/c1c[nH]c2ccc(OC)cc12 [TEGASEROD]	AC50	16.3 µM
Cc1c(C(=O)NN2CCCCC2)nn(-c2ccc(Cl)cc2Cl)c1-c1ccc(Cl)cc1 [RIMONABANT]	AC50	21 µM
Cn1nnc2c(C(N)=O)ncn2c1=O [TEMOZOLOMIDE]	AC50	> 30 µM
C[C@]1(O)CC[C@H]2[C@@H]3CCC4=CC(=O)CC[C@]4(C)[C@@]3(F)[C@@H](O)C[C@@]21C [FLUOXYMESTERONE]	AC50	> 10 µM
O=C(OCC(O)CO)c1ccccc1Nc1ccnc2cc(Cl)ccc12 (stereo not given) [GLAFENINE]	AC50	28 µM
NC(=O)OCC(COC(N)=O)c1ccccc1 [FELBAMATE]	AC50	> 10 µM
C[C@]12CCC(=O)C=C1CC[C@@H]1[C@@H]2[C@@H](O)C[C@@]2(C)[C@H]1CC[C@]2(O)C(=O)CO [HYDROCORTISONE]	AC50	> 10 µM
O=C(O)C1=C(CSc2nnnn2CS(=O)(=O)O)CS[C@@H]2[C@H](NC(=O)[C@H](O)c3ccccc3)C(=O)N12 [CEFONICID]	AC50	> 30 µM
O=[N+]([O-])O[C@@H]1CO[C@H]2[C@@H]1OC[C@@H]2O [ISOSORBIDE MONONITRATE]	AC50	> 10 µM
CS(=O)(=O)c1ccc(C2=C(c3ccccc3)C(=O)OC2)cc1 [ROFECOXIB]	AC50	> 10 µM
C[C@H]1COc2c(C3(N)CC3)c(F)cc3c(=O)c(C(=O)O)cn1c23 [PAZUFLOXACIN]	AC50	> 10 µM
CCOC(=O)[C@H](CCc1ccccc1)N[C@@H](C)C(=O)N1[C@H](C(=O)O)C[C@@H]2CCC[C@@H]21	AC50	> 10 µM
CN1C(=O)OC(C)(C)C1=O [TRIMETHADIONE]	AC50	> 10 µM
CCOC(=O)[N-]c1cn(N2CCOCC2)n[o+]1 [MOLSIDOMINE]	AC50	> 30 µM
C[C@@H]1O[C@@H](O[C@@H]2C=C3CC[C@@H]4[C@H](CC[C@]5(C)[C@@H](c6ccc(=O)oc6)CC[C@]45O)[C@@]3(C)CC2)[C@H](O)[C@H](O)[C@H]1O [PROSCILLARIDIN]	AC50	> 30 µM
Cc1nc([N+](=O)[O-])cn1-c1ccc([N+](=O)[O-])cc1 [NITREFAZOLE]	AC50	> 30 µM
Cn1c(=O)c2c(ncn2CC2OCCO2)n(C)c1=O [DOXOFYLLINE]	AC50	> 30 µM
Cc1cn([C@H]2C=C[C@@H](CO)O2)c(=O)[nH]c1=O [STAVUDINE]	AC50	> 10 µM
CN(C)CC/C=C1\c2ccccc2CSc2ccccc21 [DOTHIEPIN]	AC50	> 30 µM
N#Cc1ccc([C@H]2CCc3cncn32)c(F)c1 [OSILODROSTAT]	AC50	> 10 µM
CO[C@@H]1[C@@H](O[C@@H]2O[C@H](C)[C@@H](O[C@H]3C[C@@](C)(O)[C@@H](OC(=O)CC(C)C)[C@H](C)O3)[C@H](N(C)C)[C@H]2O)[C@@H](CC=O)C[C@@H](C)[C@@H](O)/C=C/C=C/C[C@@H](C)OC(=O)C[C@H]1OC(C)=O [JOSAMYCIN]	AC50	> 10 µM
NC(=O)CN1CC(O)CC1=O (stereo not given) [OXIRACETAM]	AC50	> 30 µM
COc1cccc(C2(O)CCCCC2CN(C)C)c1 (stereo not given) [TRAMADOL]	AC50	> 10 µM
CCN(CC)C(=O)N[C@H]1C[C@@H]2c3cccc4[nH]cc(c34)C[C@H]2N(C)C1 [TERGURIDE]	AC50	> 30 µM
O=C1C(O)=C([C@H]2CC[C@H](c3ccc(Cl)cc3)CC2)C(=O)c2ccccc21 [ATOVAQUONE]	AC50	> 30 µM
NS(=O)(=O)Cc1noc2ccccc12 [ZONISAMIDE]	AC50	> 10 µM
CC(C)=CCC/C(C)=C/C=C/C(C)=C/C=C/C(C)=C/C=C/C=C(C)/C=C/C=C(C)/C=C/C=C(\C)CCC=C(C)C [LYCOPENE]	AC50	> 30 µM
CC(=O)O[C@H]1C[C@@H]2CC[C@@H]3[C@H](CC[C@@]4(C)[C@H]3C[C@H]([N+]3(C)CCCCC3)[C@@H]4OC(C)=O)[C@@]2(C)C[C@@H]1N1CCCCC1 [VECURONIUM]	AC50	> 30 µM
C=CCC1(CC(C)C)C(=O)NC(=O)NC1=O [BUTALBITAL]	AC50	> 10 µM
O=C(O)CCCCCCNC1c2ccccc2CCc2ccccc21 [AMINEPTINE]	AC50	> 30 µM
CC(C)(C)C(=O)Oc1ccc(S(=O)(=O)Nc2ccccc2C(=O)NCC(=O)O)cc1	AC50	> 30 µM
Nc1nc(N)nc(-c2cc(Cl)ccc2Cl)n1 [IRSOGLADINE]	AC50	> 30 µM
C/C(O)=C(\C#N)C(=O)Nc1ccc(C(F)(F)F)cc1 [TERIFLUNOMIDE]	AC50	> 30 µM
Clc1ccc(CCCOCCCN2CCCCC2)cc1 [PITOLISANT]	AC50	> 30 µM
COc1ccc2c3c1O[C@H]1C(=O)CC[C@@]4(O)[C@@H](C2)N(C)CC[C@]314 [OXYCODONE]	AC50	> 30 µM
